Each recorded value in this set is attributed to patent US8435978B2.

# tgt: human B1R receptor (Homo sapiens, UniProt P46663)
# Construct: host or cells: CHO K1 cells (Chinese hamster ovary), stably transfected
# Sequence (P46663 whole entry): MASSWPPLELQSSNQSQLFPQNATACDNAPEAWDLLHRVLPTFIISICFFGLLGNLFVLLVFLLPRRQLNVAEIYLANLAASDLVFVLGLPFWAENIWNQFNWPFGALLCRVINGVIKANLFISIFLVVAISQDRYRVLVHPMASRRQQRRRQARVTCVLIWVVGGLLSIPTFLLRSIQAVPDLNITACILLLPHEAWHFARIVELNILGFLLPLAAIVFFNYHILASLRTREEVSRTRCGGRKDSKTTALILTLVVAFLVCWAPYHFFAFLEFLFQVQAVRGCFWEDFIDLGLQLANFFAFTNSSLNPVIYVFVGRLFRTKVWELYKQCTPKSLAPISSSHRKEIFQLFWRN
# assay_explanation: Functional study on the bradykinin receptor 1 (B1R), FLIPR Ca2+ assay, hB1R cells
# Assay type: cell-based
# test_context: CHO-K1, test substance 10 μM, agonist Lys-Des-Arg9-bradykinin 0.5 nM, % inhibition compared with the maximum achievable inhibition, read-out: B1R Antagonism, human [10 μM] % Inhibition
Where a name gives a salt, the structure may show the parent alone.
experimental_endpoint: inhibition at 10 µM

{"columns": ["molecule", "data_value"],
 "data": [
  ["CN1CCC(N2CCN(C(=O)COCC3CCCCN3S(=O)(=O)c3c(Cl)cccc3Cl)CC2)CC1 (stereo not shown) [Example 141, dihydrochloride]", "101%"],
  ["COc1cc(C)c(S(=O)(=O)N2CCCCC2COCC(=O)Nc2cccc(N3CCCCC3)c2)c(C)c1 (stereo not shown)", "14.3%"],
  ["COc1cc(C)c(S(=O)(=O)N2CCCCC2COCC(=O)N2CCC(N3CCN4CCCCC4C3)CC2)c(C)c1 (stereo not shown)", "104%"],
  ["O=C(COCC1CCCCN1S(=O)(=O)c1ccc(Cl)c(Cl)c1)N1CCC(N2CCCC2)CC1 (stereo not shown)", "86.8%"],
  ["CCN(Cc1ccncc1)C(=O)COCC1CCCN1S(=O)(=O)c1c(C)cc(OC)cc1C (stereo not shown)", "92.5%"],
  ["O=C(COC[C@@H]1Cc2ccccc2CN1S(=O)(=O)c1ccc(Cl)cc1Cl)N1CCC(CCN2CCCC2)CC1", "100%"]
]}

Turning now to a further molecule:
Qu. Given the molecule COc1cc(C)c(S(=O)(=O)N2CCCCC2COCC(=O)N(CCCN(C)C)CCCN(C)C)c(C)c1 (stereo not shown) , write its reported inhibition at 10 µM.
Ans. 102%

###

# tgt: B1R receptor of the rat (Rattus norvegicus)
# Construct: host or cells: CHO K1 cells (Chinese hamster ovary), stably transfected
# Sequence (P97583 whole entry): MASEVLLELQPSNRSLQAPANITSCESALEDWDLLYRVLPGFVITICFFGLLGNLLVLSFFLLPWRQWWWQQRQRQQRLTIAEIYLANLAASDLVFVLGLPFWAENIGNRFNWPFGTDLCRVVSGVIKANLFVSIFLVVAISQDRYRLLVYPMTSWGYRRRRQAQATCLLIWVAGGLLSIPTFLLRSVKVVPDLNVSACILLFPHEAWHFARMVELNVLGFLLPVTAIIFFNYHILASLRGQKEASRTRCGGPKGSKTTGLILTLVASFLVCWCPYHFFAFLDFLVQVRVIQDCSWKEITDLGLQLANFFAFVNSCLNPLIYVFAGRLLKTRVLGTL
# assay_explanation: Functional study on the bradykinin receptor 1 (B1R), FLIPR Ca2+ assay, rB1R cells
# Assay type: cell-based
# test_context: CHO-K1, test substance 10 μM, agonist Des-Arg9-bradykinin 100 nM, % inhibition compared with the maximum achievable inhibition, read-out: B1R Antagonism, rat [10 μM] % Inhibition
Counter-ions that a name gives are not always drawn.
experimental_endpoint: inhibition at 10 µM
# answer = value followed by unit

These solved cases illustrate the format of a correct answer.
{"columns": ["compound", "experimental_endpoint", "data_value"],
 "data": [
  ["Cc1cc(C)c(S(=O)(=O)N2CCCCC2COCC(=O)N2CCCN(Cc3ccccc3)CC2)c(C)c1 (centres unmarked) [Example 31]", "inhibition at 10 µM", "94.7%"],
  ["CN(C)CCCN1CCN(C(=O)COCC2CCCCN2S(=O)(=O)c2ccc(Cl)c(Cl)c2)CC1 (centres unmarked) [Example 85]", "inhibition at 10 µM", "40.8%"],
  ["COc1cc(C)c(S(=O)(=O)N2CCCCC2COCC(=O)Nc2ccncn2)c(C)c1 (centres unmarked) [Example 372]", "inhibition at 10 µM", "83.8%"],
  ["COc1cc(C)c(S(=O)(=O)N2CCCCC2COCC(=O)N(C)C(CN2CCCC2)c2ccccc2)c(C)c1 (centres unmarked) [Example 241]", "inhibition at 10 µM", "99.3%"],
  ["O=C(COCC1CCCCN1S(=O)(=O)c1c(Cl)cc(Cl)cc1Cl)NCc1ccncc1 (centres unmarked) [Example 394]", "inhibition at 10 µM", "99.1%"],
  ["Cc1cc(F)cc(C)c1S(=O)(=O)N1CCCCC1COCC(=O)N1CCN(C2CCN(C)CC2)CC1 (centres unmarked) [Example 169, dihydrochloride]", "inhibition at 10 µM", "101%"],
  ["O=C(COCC1CCCCN1S(=O)(=O)c1c(Cl)cccc1Cl)NCc1ccc(CN2CCOCC2)cc1 (centres unmarked) [Example 549]", "inhibition at 10 µM", "99%"],
  ["O=C(COCC1CCCN1S(=O)(=O)c1c(Cl)cc(Cl)cc1Cl)N1CCC(N2CCCC2)CC1 (centres unmarked) [Example 296]", "inhibition at 10 µM", "99.3%"]
]}

Here is the next item to consider.
Qu. Give a short answer stating reported inhibition at 10 µM for COc1cc(C)c(S(=O)(=O)N2CCCC2COCC(=O)Nc2ccc3cnn(C)c3c2)c(C)c1 (centres unmarked) [Example 501] .
Ans. 89.7%
